- Tested On: calmodulin (calcium-loaded, holo-CaM) (UniProt P0DP23)
- Assay Summary: other fluorescence titration + ITC
Outcome Measure: Kd (µM)
Numbers only, in µM.

# get_value(readout='Kd', item= ASAHWGQEALQGAQAVAAAQELVHAIALMTQ [P454_(R12E) peptide (P454 with R461 and R474 substituted by glutamate)] )
22.7
